target: AgOctβ2R (AgOctβ2) (Anopheles gambiae); experiment: G-Flamp2 cAMP biosensor fluorescence in HeLa cells expressing the receptor
Sequence (F5HKI1 1-526): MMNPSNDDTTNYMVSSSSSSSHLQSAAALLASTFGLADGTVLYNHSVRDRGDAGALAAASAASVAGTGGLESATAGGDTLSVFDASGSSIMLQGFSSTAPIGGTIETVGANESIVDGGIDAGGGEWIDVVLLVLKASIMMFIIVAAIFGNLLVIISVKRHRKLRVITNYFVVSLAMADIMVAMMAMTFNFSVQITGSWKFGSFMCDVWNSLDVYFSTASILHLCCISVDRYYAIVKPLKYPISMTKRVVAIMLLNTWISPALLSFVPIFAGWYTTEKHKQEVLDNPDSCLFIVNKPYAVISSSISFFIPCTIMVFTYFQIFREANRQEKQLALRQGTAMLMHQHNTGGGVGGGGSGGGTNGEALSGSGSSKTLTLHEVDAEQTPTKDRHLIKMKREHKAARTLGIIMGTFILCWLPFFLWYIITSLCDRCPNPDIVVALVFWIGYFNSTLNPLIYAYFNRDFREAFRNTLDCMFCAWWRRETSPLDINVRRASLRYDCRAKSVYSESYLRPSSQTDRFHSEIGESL
# key: entry, value: pEC50
pEC50 field: float, defined as -log10 of concentration (mol/L).

> print(dat)
                                   molecule  measured.metric  readout.value
1  Cc1ccc(/N=C/N(C)/C=N/c2ccc(C)cc2C)c(C)c1 [amitraz]            pEC50           7.97

Let's switch to this molecule now.
// pEC50 lookup, key: NCC(O)c1ccc(O)cc1 (centres unmarked) [octopamine]
7.83
